# target: T1, cynomolgus monkey DLL4 extracellular domain (cynomolgus monkey)
# T1 construct: extracellular domain; also called cynoDLL4 ECD; Cyno DLL4
# experiment.description: SPR (Biacore)
koff values, listed per item
Number in s⁻¹, nothing else.

Asked: Give reported koff value for h1A11.A11 (antibody, V domains shown, also called h1A11.A11 VH / h1A11VL.1) VH: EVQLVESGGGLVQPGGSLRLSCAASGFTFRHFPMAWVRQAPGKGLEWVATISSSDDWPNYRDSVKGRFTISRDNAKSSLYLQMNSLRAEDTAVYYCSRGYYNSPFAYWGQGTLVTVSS VL: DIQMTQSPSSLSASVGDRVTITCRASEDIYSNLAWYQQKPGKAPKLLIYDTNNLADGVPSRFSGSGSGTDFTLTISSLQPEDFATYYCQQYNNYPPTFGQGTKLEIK
Given back: 3.35e-05

Asked: Give reported koff value for h1A11.F5 (antibody, V domains shown, also called h1A11.F5 VH / h1A11.E12 VL) VH: EVQLVESGGGLVQPGGSLRLSCAASGFTFRHFPMAWVRQAPGKGLEWVATISSSDAWPSYRDSVKGRFTISRDNAKNSLYLQMNSLRAEDTAVYYCARGYYNSPFAYWGQGTLVTVSS VL: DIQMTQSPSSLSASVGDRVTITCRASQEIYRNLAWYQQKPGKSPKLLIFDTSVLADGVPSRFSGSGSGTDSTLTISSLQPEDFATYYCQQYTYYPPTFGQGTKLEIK
Given back: 2e-05
